Values from ChEMBL document CHEMBL3137667

- COND: human;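 note: human cytolytic liver injury, shown by histopathology or by a ratio above 5 of peak ALT or AST elevation to alkaline phosphatase elevation, value counts indexed references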
REPORTED ENDPOINT: Hepatotoxicity (cytolytic)

1) Clc1cccc(C(c2ccc3[nH]cnc3c2)n2ccnc2)c1 (stereo not drawn) [LIAROZOLE] : 0
2) CN[C@@H]1[C@H](O)[C@H](NC)[C@H]2O[C@@]3(O)C(=O)C[C@@H](C)O[C@H]3O[C@@H]2[C@H]1O [SPECTINOMYCIN] : 0
3) CCCCNc1cc(C(=O)O)cc(S(N)(=O)=O)c1Oc1ccccc1 [BUMETANIDE] : 0

Please look up its Hepatotoxicity (cytolytic): O=C(COCCOCCOCC(=O)Nc1c(I)cc(I)c(C(=O)O)c1I)Nc1c(I)cc(I)c(C(=O)O)c1I [IOTROXIC ACID]
0

What do you get for CC1(C)[C@H](C(=O)O)N2C(=O)C[C@H]2S1(=O)=O.CCN1CCN(C(=O)N[C@@H](C(=O)N[C@@H]2C(=O)N3C(C(=O)O)=C(CSc4nnnn4C)CS[C@H]23)c2ccc(O)cc2)C(=O)C1=O ?
0

Please answer likewise for COC1=C(C(=O)O)N2C(=O)[C@@H](NC(=O)[C@H](N)C3=CCC=CC3)[C@H]2SC1 [CEFROXADINE]
0

Proceed to CC1(C)CC(=O)N(CCCCN2CCN(c3ncccn3)CC2)C(=O)C1 [GEPIRONE]
0

Next: CCCCCOC(=O)Nc1nc(=O)n([C@@H]2O[C@H](C)[C@@H](O)[C@H]2O)cc1F [CAPECITABINE]
0
